The reported measurements were obtained from ChEMBL document CHEMBL1137501.

TARGET OR SYSTEM: Oxytocin receptor (Homo sapiens, UniProt P30559)
Sequence (P30559 whole entry): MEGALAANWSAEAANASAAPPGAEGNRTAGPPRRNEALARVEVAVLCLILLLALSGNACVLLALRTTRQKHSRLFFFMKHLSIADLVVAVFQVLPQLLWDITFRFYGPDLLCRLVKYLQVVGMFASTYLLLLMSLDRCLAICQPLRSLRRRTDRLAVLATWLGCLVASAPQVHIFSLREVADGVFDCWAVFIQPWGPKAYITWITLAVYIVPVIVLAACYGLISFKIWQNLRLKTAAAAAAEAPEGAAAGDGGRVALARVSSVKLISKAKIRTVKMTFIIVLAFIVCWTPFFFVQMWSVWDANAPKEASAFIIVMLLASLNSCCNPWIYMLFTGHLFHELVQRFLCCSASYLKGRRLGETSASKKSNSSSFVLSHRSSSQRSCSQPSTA
EXPERIMENT DESCRIPTION: Displacement of [3H]oxytocin from human oxytocin receptor expressed in CHO cells
A collection of compounds and their measured IC50
MEASUREMENT KIND: IC50

• Cc1ccc(F)cc1C(=O)Nc1ccc(C(=O)N2C=C3CCC(=O)N3Cc3ccccc32)c(Cl)c1 = > 1000 nM
• Cc1ccc(F)cc1C(=O)Nc1ccc(C(=O)Nc2ccccc2Cn2cccc2C(=O)O)c(Cl)c1 = > 1000 nM
• Cc1ccc(F)cc1C(=O)Nc1ccc(C(=O)N2CC3C=CC(=O)N3Cc3ccccc32)c(Cl)c1 (stereo unspecified) = > 1000 nM
• Cc1ccc(F)cc1C(=O)Nc1ccc(C(=O)Nc2ccccc2C(=O)O)c(Cl)c1 = > 1000 nM
• Cc1ccn(-c2ccc(C(=O)N3Cc4cccn4Cc4ccccc43)c(Cl)c2)n1 = 353 nM
• Cc1ccc(F)cc1C(=O)Nc1ccc(C(=O)N2Cc3cccn3Cc3ccccc32)c(Cl)c1 [LIXIVAPTAN] = 519 nM

----------
A collection of compounds and their measured IC50
TARGET OR SYSTEM: Vasopressin V1a receptor (Homo sapiens, UniProt P37288)
Sequence (P37288 whole entry): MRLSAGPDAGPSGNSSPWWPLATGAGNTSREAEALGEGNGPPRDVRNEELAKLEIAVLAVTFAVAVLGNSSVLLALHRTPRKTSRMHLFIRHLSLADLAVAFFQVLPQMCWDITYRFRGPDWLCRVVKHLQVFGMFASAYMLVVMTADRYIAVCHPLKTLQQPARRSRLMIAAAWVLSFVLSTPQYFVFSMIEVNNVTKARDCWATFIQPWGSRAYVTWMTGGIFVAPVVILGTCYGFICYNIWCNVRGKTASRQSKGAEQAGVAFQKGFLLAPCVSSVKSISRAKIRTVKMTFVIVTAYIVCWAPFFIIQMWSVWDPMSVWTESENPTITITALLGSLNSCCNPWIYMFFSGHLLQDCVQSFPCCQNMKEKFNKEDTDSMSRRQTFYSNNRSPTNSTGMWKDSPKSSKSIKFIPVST
EXPERIMENT DESCRIPTION: Displacement of [3H]manning ligand from human vasopressin V1a receptor expressed in CHO cells
MEASUREMENT KIND: IC50

- Cc1ccc(F)cc1C(=O)Nc1ccc(C(=O)Nc2ccccc2C(=O)O)c(Cl)c1: > 1000 nM
- Cc1ccc(F)cc1C(=O)Nc1ccc(C(=O)N2C=C3CCC(=O)N3Cc3ccccc32)c(Cl)c1: > 1000 nM
- Cc1ccc(F)cc1C(=O)Nc1ccc(C(=O)Nc2ccccc2Cn2cccc2C(=O)O)c(Cl)c1: > 1000 nM
- Cc1ccc(F)cc1C(=O)Nc1ccc(C(=O)N2Cc3cccn3Cc3ccccc32)c(Cl)c1: 124 nM
- Cc1ccc(F)cc1C(=O)Nc1ccc(C(=O)N2CC3C=CC(=O)N3Cc3ccccc32)c(Cl)c1 (stereo not given): > 1000 nM

----------
TARGET OR SYSTEM: Vasopressin V2 receptor (Homo sapiens, UniProt P30518)
Sequence (P30518 whole entry): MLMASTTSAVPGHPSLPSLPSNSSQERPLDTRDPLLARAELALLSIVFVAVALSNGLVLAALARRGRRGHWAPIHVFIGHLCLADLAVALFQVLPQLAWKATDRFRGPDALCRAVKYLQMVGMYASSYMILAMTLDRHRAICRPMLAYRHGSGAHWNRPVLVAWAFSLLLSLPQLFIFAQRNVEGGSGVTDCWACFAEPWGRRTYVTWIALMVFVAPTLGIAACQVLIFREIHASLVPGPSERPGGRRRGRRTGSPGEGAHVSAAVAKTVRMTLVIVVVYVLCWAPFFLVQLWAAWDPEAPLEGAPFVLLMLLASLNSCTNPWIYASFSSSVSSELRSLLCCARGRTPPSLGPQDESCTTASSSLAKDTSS
EXPERIMENT DESCRIPTION: Displacement of [3H]AVP from human vasopressin V2 receptor expressed in mouse LV2 cells
Assay type: cell-based
pIC50: −log10 of the molar value.
MEASUREMENT KIND: pIC50

- Cc1ccn(-c2ccc(C(=O)N3C=C4CCC(=O)N4Cc4ccccc43)c(Cl)c2)n1: 5.92
